System: Pseudomonas aeruginosa
Settings: Pseudomonas aeruginosa ATCC 27853; broth microdilution in CAMHB; TFA salt
Positions of bridges follow the written chain, without caps; N, C: chain ends. Non-standard residues stand in square brackets, D forms with d. Residues, ends and D or L forms follow the SMILES beside them. *: point of attachment. Hydrocinnamoyl = O=C(CCc1ccccc1)*; X3 = O=C(c1ccc(Cl)cc1Cl)*; Orn = NCCC[C@H](N)C(=O)O; Dab = NCC[C@H](N)C(=O)O; Abu = CC[C@H](N)C(=O)O; Dap = NC[C@H](N)C(=O)O
We begin with a simple list: items and their reported Minimum inhibitory concentration (MIC), Pa ATCC 27853.
Only the number, expressed in µg/mL, is required.

Compound: CC[C@@H]1NC(=O)[C@@H](CC(C)C)NC(=O)[C@H](CCN)NC(=O)[C@@H](NC(=O)[C@H](CCCN)NC(=O)[C@@H](NC(=O)[C@H](CCN)NC(=O)c2ccc(Cl)cc2Cl)[C@@H](C)O)CCNC(=O)[C@H]([C@@H](C)O)NC(=O)[C@H](CCN)NC(=O)[C@H](CCN)NC1=O [Compound 147] (X3-[Dab]T[Orn][Dab][Dab][dL][Abu][Dab][Dab]T; lactam 4-C)
Val: 1

Proceeding to the next compound to report its Minimum inhibitory concentration (MIC), Pa ATCC 27853.
What measured Minimum inhibitory concentration (MIC), Pa ATCC 27853 goes with CC[C@@H]1NC(=O)[C@@H](CC(C)C)NC(=O)[C@H](CCN)NC(=O)[C@@H](NC(=O)[C@H](CN)NC(=O)[C@@H](NC(=O)[C@H](CCN)NC(=O)CCc2ccccc2)[C@@H](C)O)CCNC(=O)[C@H]([C@@H](C)O)NC(=O)[C@H](CCN)NC(=O)[C@H](CCN)NC1=O [Compound 145] (Hydrocinnamoyl-[Dab]T[Dap][Dab][Dab][dL][Abu][Dab][Dab]T; lactam 4-C) ? 0.5
